# Organism: Homo sapiens
# ASSAY PROTOCOL: In vitro cytotoxicity in Human ovary tumor cells
# Assay type: functional
# CONDITION PARAMETERS: Female gonad
Consider the following compounds; for each one, report its log10(IC50).
// do not treat as linear: log10 of IC50, unit µg/mL

Reference set (3 entries):
COMPOUND STRUCTURE STRING: O=[N+]([O-])c1ccc(N/N=C(\c2ccccc2)c2ccc(O)cc2)c([N+](=O)[O-])c1
log10(IC50): -0.52
//
COMPOUND STRUCTURE STRING: Nc1ccc(/C(=N/Nc2ccc([N+](=O)[O-])cc2[N+](=O)[O-])c2ccccc2N)cc1
log10(IC50): 0.30
//
COMPOUND STRUCTURE STRING: Oc1ccc(C(=NNc2ccccc2)c2ccc(O)cc2)cc1
log10(IC50): 0.79

I have 3 compounds here; please give me log10(IC50) for each one.
1. C/C(=N\Nc1ccc([N+](=O)[O-])cc1)c1ccc(O)cc1
2. O=[N+]([O-])c1ccc(NN=C(c2ccc(O)cc2O)c2ccc(O)cc2O)c([N+](=O)[O-])c1
3. O=[N+]([O-])c1ccc(NN=c2c3ccccc3oc3ccccc23)c([N+](=O)[O-])c1

**Result**
1: 0.78; 2: -1.52; 3: -1.30

* * *

Consider the following molecules; for each one, report its IC50.
# Species on record: Homo sapiens
# ASSAY PROTOCOL: In vitro cytotoxicity in Human ovary tumor cells
# Type: functional
# CONDITION PARAMETERS: Female gonad
Give bare numbers, in µg/mL.

I have 4 molecules here; please give me IC50 for each one.
1. O=[N+]([O-])c1ccc(NN=C(c2ccccc2O)c2ccccc2O)c([N+](=O)[O-])c1
2. Nc1ccc2c(/N=N/c3ccc([N+](=O)[O-])cc3[N+](=O)[O-])c3ccccc3c(O)c2c1N
3. CC(=O)Oc1cccc2c(/N=N/c3ccc([N+](=O)[O-])cc3[N+](=O)[O-])c3cccc(O)c3c(O)c12
4. CC(=O)Oc1cccc2c(/N=N/c3ccc([N+](=O)[O-])cc3[N+](=O)[O-])c3cccc(OC(C)=O)c3c(O)c12

**Result**
1. 5
2. 6
3. 0.4
4. 0.3

* * *

Consider the following molecules; for each one, report its IC50.
# ASSAY PROTOCOL: In vitro cytotoxicity in Human breast tumor cells
# Type: functional, cell-based

COMPOUND STRUCTURE STRING: Nc1ccc2c(NNc3ccc([N+](=O)[O-])cc3[N+](=O)[O-])c3cc(N)ccc3c(/N=N/c3ccc([N+](=O)[O-])cc3[N+](=O)[O-])c2c1
MEASURE NAME: IC50
RECORDED VALUE: > 5 mg/L

COMPOUND STRUCTURE STRING: O=[N+]([O-])c1ccc(N(Cc2ccccc2)N=c2c3ccccc3oc3ccccc23)c([N+](=O)[O-])c1
MEASURE NAME: IC50
RECORDED VALUE: > 10 mg/L

COMPOUND STRUCTURE STRING: CC(=O)c1ccc2c(c1)/C(=N\Nc1ccc([N+](=O)[O-])cc1[N+](=O)[O-])c1ccc(C(C)=O)cc1-2
MEASURE NAME: IC50
RECORDED VALUE: > 5 mg/L

COMPOUND STRUCTURE STRING: O=[N+]([O-])c1ccc(/N=N/c2c3ccccc3c3c4c(cccc24)NN3)c([N+](=O)[O-])c1
MEASURE NAME: IC50
RECORDED VALUE: > 5 mg/L

COMPOUND STRUCTURE STRING: O=c1c2cccc3c2c(nn1-c1ccccc1[N+](=O)[O-])-c1ccccc1-3
MEASURE NAME: IC50
RECORDED VALUE: > 5 mg/L

I have 3 molecules here; please give me IC50 for each one.
1. COc1ccc2c(=NNc3ccc([N+](=O)[O-])cc3[N+](=O)[O-])c3ccc(OC)cc3oc2c1
2. CC(=O)Nc1ccc(C(=NNc2ccc([N+](=O)[O-])cc2[N+](=O)[O-])c2ccc(NC(C)=O)cc2)cc1
3. CC(=O)Oc1cccc2c1-c1nn(-c3ccccc3)c(=O)c3cccc(c13)C2=O

**Result**
1. > 5 mg/L
2. > 10 mg/L
3. > 5 mg/L

* * *

Consider the following compounds; for each one, report its IC50.
# Organism: Homo sapiens
# ASSAY PROTOCOL: In vitro cytotoxicity in Human ovary tumor cells
# Assay type: functional
# CONDITION PARAMETERS: Female gonad

Reference set (2 entries):
COMPOUND: CC(=O)Nc1ccc(C(=NNc2ccc([N+](=O)[O-])cc2[N+](=O)[O-])c2ccc(NC(C)=O)cc2)cc1
RECORDED VALUE: > 10 µg/mL
--
COMPOUND: O=[N+]([O-])c1ccc(NN=c2c3ccccc3[s+]([O-])c3ccccc23)c([N+](=O)[O-])c1 (stereo not drawn)
RECORDED VALUE: > 10 µg/mL

**Query** Which IC50 is listed for O=c1c2cccc3c2c(nn1-c1ccccc1[N+](=O)[O-])-c1ccccc1-3 ?
**Result** > 5 µg/mL

Every entry's value here was drawn from ChEMBL document CHEMBL1145129.
